# System: A549 NSCLC
# assay overview: NCI tumour cell line growth inhibition, 48 h
parameter measured: TGI

compound=C/C(CCC(=O)O)=N/Nc1ccc([N+](=O)[O-])cc1 parameter_measured=TGI readout_value="> 100 µM"
compound="CCOP(=O)(CCCC(O)CNc1nc(N)nc(Cl)c1N=Nc1ccc(Cl)cc1)OCC (centres undefined)" parameter_measured=TGI readout_value="23.9 µM"
compound=Clc1ccc(CCNC2(c3cc4ccccc4s3)CCCCC2)cc1Cl parameter_measured=TGI readout_value="> 100 µM"
compound=O=C1c2ccccc2C(=O)N1n1c(Cc2ccc(Cl)cc2)n[nH]c1=O parameter_measured=TGI readout_value="> 100 µM"
compound=O=[N+]([O-])c1ccc(/C=C/c2nc3ccc(Cl)cc3[nH]2)cc1 parameter_measured=TGI readout_value="> 100 µM"
compound=O=C(c1ccccc1)N1CCN(C(=S)NC2CCCCC2)C1=S parameter_measured=TGI readout_value="30.6 µM"
compound=O=C([O][Hg][c]1ccccc1)c1ccccc1 parameter_measured=TGI readout_value="40 µM"
compound="CC(=O)OCC1OC(N2C(=O)NC(=O)C3C=C4CCCCC4=CC32)CC1OC(C)=O (centres undefined)" parameter_measured=TGI readout_value="> 100 µM"
compound=COC1=C[C@]2(CCC(=O)O2)[C@@H]2Cc3ccccc3[C@H](O)[C@@H]2C1=O parameter_measured=TGI readout_value="> 100 µM"
compound="CNS(=O)(=O)OCC1OC(n2cnc3cncnc32)C(O)C1O (centres undefined)" parameter_measured=TGI readout_value="> 100 µM"
compound=C[C@H](c1ccc(F)cc1CCCC(=O)O)N(c1cc(F)ccc1F)S(=O)(=O)c1ccc(Cl)cc1 parameter_measured=TGI readout_value="> 100 µM"
compound=COc1ccc(-c2coc3cc(O)ccc3c2=O)cc1 parameter_measured=TGI readout_value="> 100 µM"
compound=Cn1c2ccc(F)cc2c2ccc3c(c21)C(=O)C=CC3=O parameter_measured=TGI readout_value="> 100 µM"
compound=O=c1c2c3c(sc2nc2n1N=CN(c1ccccc1)C2)CCCC3 parameter_measured=TGI readout_value="> 100 µM"
compound="O=C(c1ccccc1)C(Cl)C(Cl)c1ccccc1 (centres undefined)" parameter_measured=TGI readout_value="34.2 µM"
compound="CCCCCCC1N=C(N)N=C(N)N1c1cccc(Cl)c1 (centres undefined)" parameter_measured=TGI readout_value="> 44.5 µM"
compound=COc1ccc(-c2oc3ccccc3c(=O)c2O)cc1OC parameter_measured=TGI readout_value="> 100 µM"
compound=CC(C)(C)NC1=NC(C(F)(F)F)(C(F)(F)F)NC(=O)N1 parameter_measured=TGI readout_value="> 100 µM"
compound="O=C(COc1ccccc1Cl)N1N=C(c2ccccc2)CC1(O)c1ccccc1 (centres undefined)" parameter_measured=TGI readout_value="44.4 µM"
